// data source = patent US7067531B2

Outcome Measure: melting point (°C)

Previously resolved entries follow.
- Cn1cncc1C(O)(c1ccoc1)c1ccc2c(c1)c(-c1cccc(Cl)c1)cc(=O)n2C (racemic): 248
- Cn1cncc1C(O)(c1ccc2c(c1)c(-c1cccc(Cl)c1)cc(=O)n2C)c1nccs1 (racemic): 246
- O=C(O)C(=O)O.O=c1[nH]c2ccc(C(c3nc(-c4ccccc4)cs3)n3ccnc3-c3ccccc3)cc2c(-c2cccc(Cl)c2)c1CO (centres unmarked): 149

P = Cn1cncc1C(N)(c1ccoc1)c1ccc2c(c1)c(-c1cccc(Cl)c1)cc(=O)n2C (racemic)
Q = Cn1cncc1C(O)(c1ccc2c(c1)c(-c1cccc(Cl)c1)cc(=O)n2C)c1nccn1C (centres unmarked)
In: Hi team, can someone confirm which has the larger melting point: P or Q ? Thanks. Your answer should be the label of the entry you select.
Out: P
